test system: PC3; assay: PC3 tumor cell line proliferation assay; type: cell-based; settings: Homo sapiens, PC-3; Table 1
pEC50: −log10 of the molar value.
Exercise: for every item that follows, state its recorded pEC50.

CC(C)n1nc(-c2ccc3c(N)noc3c2)c2c(N)ncnc21: < 5.00

Quick batch: pEC50 for everything below.
1. CC(C)n1nc(-c2ccc3onc(N)c3c2)c2c(N)ncnc21
2. Nc1nc2cc(-c3nn(C4CCC(N5CCOCC5)CC4)c4ncnc(N)c34)ccc2o1 (stereo not shown)

< 5.00
> 6.00

----------
target: mTORC (Homo sapiens (Human))
Sequence (P42345 1360-2549): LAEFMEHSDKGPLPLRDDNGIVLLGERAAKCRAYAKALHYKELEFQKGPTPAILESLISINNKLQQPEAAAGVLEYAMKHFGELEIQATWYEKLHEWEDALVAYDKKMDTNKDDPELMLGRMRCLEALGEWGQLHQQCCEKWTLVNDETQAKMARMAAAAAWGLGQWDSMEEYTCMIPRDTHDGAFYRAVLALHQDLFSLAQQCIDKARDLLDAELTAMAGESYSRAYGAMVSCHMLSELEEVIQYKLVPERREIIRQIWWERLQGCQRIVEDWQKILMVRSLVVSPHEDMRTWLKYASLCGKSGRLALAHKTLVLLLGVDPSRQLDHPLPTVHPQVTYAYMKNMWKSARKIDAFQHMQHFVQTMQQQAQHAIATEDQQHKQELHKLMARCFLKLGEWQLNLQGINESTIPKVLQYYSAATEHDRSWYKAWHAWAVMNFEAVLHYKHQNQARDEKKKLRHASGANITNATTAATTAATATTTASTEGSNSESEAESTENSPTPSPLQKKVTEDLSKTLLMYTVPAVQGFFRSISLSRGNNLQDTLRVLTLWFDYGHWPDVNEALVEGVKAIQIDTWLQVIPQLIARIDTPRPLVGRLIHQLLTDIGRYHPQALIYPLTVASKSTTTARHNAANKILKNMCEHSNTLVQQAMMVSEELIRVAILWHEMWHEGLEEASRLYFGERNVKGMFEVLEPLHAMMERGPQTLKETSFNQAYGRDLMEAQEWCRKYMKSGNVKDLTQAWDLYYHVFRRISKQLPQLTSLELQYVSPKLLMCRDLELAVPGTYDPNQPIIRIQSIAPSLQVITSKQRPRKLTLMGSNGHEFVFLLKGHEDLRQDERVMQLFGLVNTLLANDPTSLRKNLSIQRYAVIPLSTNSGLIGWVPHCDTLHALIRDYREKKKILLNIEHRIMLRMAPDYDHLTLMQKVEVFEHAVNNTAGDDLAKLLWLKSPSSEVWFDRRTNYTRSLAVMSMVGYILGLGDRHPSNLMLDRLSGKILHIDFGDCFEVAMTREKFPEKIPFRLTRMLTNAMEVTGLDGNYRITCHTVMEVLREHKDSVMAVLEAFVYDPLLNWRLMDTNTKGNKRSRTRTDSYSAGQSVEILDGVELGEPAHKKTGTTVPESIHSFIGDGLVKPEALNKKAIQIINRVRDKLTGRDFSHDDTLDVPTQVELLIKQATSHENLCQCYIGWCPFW
resultType: IC50

# annotated cases, reported IC50 shown
Nc1ncnc2c1c(-c1cc3cccc(O)c3[nH]1)nn2C1CCN(C(=O)C2CC2)CC1: < 10 nM
Nc1ncnc2c1c(-c1cc3cc(O)ccc3[nH]1)nn2C1CC(=O)C1: < 100 nM
CNC(=O)CCn1nc(-c2cc3cc(O)ccc3[nH]2)c2c(N)ncnc21: > 500 nM
CC(=O)N1CCC(n2nc(-c3cc4ccc(O)cc4[nH]3)c3c(N)ncnc32)CC1: < 10 nM

Dear colleague, could you send me IC50 for each of the items below? Thanks.
1. COc1cc2cc(-c3nn(C(C)C)c4ncnc(N)c34)[nH]c2cc1Cl
2. COc1ccc(Cl)c2cc(-c3nn(C4CCOCC4)c4ncnc(N)c34)[nH]c12
3. CC(C)N1CCC(n2nc(-c3cc4cc(O)cc(Cl)c4[nH]3)c3c(N)ncnc32)CC1

["> 500 nM", "< 25 nM", "> 500 nM"]

Give measured IC50 for every item shown.
1. Nc1ncnc2c1c(-c1cc3cc(O)ccc3[nH]1)nn2C1CCOCC1
2. Nc1ncnc2c1c(-c1cc3cc(O)ccc3[nH]1)nn2Cc1cccnc1
3. Nc1ncnc2c1c(-c1cc3cc(O)ccc3[nH]1)nn2C1CC(N2CCOCC2)C1 (stereo not shown)
4. CC(C)N1CCC(n2nc(-c3cc4cc(O)ccc4[nH]3)c3c(N)ncnc32)CC1
5. CC(C)n1nc(-c2cc3cc(O)ccc3[nH]2)c2c(N)nccc21

1: < 5 nM; 2: < 500 nM; 3: < 10 nM; 4: < 500 nM; 5: > 500 nM

// each compound listed below needs its IC50
1. COc1cc(Cl)c2[nH]c(-c3nn(C4CCOCC4)c4ncnc(N)c34)cc2c1
2. CC(C)N1CCC(n2nc(-c3cc4cccc(O)c4[nH]3)c3c(N)ncnc32)CC1
3. Cc1nccn1CCn1nc(-c2cc3cc(O)ccc3[nH]2)c2c(N)ncnc21
4. Nc1ncnc2c1c(-c1cc3cccc(Cl)c3[nH]1)nn2C1CCOCC1
5. Nc1ncnc2c1c(-c1cc3cccc(O)c3[nH]1)nn2C1CCOCC1
6. COc1cccc2cc(-c3nn(C4CCN(C(=O)C5CC5)CC4)c4ncnc(N)c34)[nH]c12

> 500 nM
< 25 nM
< 100 nM
< 50 nM
< 5 nM
> 500 nM

Kindly give each listed record's IC50.
1. CC(=O)N1CCC(n2nc(-c3cc4cc(O)ccc4[nH]3)c3c(N)ncnc32)CC1
2. CN1CCN(C2CCC(n3nc(-c4cc5cc(O)ccc5[nH]4)c4c(N)ncnc43)CC2)CC1 (stereo not shown)
3. Nc1ncnc2c1c(-c1cc3cc(O)cc(Cl)c3[nH]1)nn2C1CCOCC1
4. COCCn1nc(-c2cc3cc(O)ccc3[nH]2)c2c(N)ncnc21
5. Nc1ncnc2c1c(-c1cc3cc(O)ccc3[nH]1)nn2C1CCN(C(=O)C2CC2)CC1
6. CN1CCN(C2CC(n3nc(-c4cc5cc(O)ccc5[nH]4)c4c(N)ncnc43)C2)CC1 (stereo not shown)
7. Nc1ncnc2c1c(-c1cc3cc(O)ccc3[nH]1)nn2C1CCC(N2CCOCC2)CC1 (stereo not shown)
8. Nc1ncnc2c1c(-c1cc3cc(O)ccc3[nH]1)nn2CCN1CCOCC1

1: < 25 nM; 2: > 500 nM; 3: < 5 nM; 4: < 100 nM; 5: < 25 nM; 6: < 500 nM; 7: < 25 nM; 8: < 500 nM

// input: 5 compounds below; output: IC50 for each
1. CC(=O)N1CCC(n2nc(-c3cc4cc(O)cc(Cl)c4[nH]3)c3c(N)ncnc32)CC1
2. Nc1ncnc2c1c(-c1cc3cc(O)ccc3[nH]1)nn2CC(=O)N1CCOCC1
3. CNC(=O)Cn1nc(-c2cc3cc(O)ccc3[nH]2)c2c(N)ncnc21
4. CC(C)n1nc(-c2cc3c(Cl)ccc(O)c3[nH]2)c2c(N)ncnc21
5. COc1ccc2cc(-c3nn(C4CCOCC4)c4ncnc(N)c34)[nH]c2c1

1: < 5 nM; 2: > 500 nM; 3: > 500 nM; 4: < 10 nM; 5: > 500 nM

// for each compound in input: emit IC50
1. COc1cccc2cc(-c3nn(C4CCOCC4)c4ncnc(N)c34)[nH]c12
2. CC(=O)N1CCC(n2nc(-c3cc4c(Cl)ccc(O)c4[nH]3)c3c(N)ncnc32)CC1
3. CC(C)N1CCC(n2nc(-c3cc4c(Cl)ccc(O)c4[nH]3)c3c(N)ncnc32)CC1

1. < 5 nM
2. < 5 nM
3. < 100 nM
